Below are pIC50 values measured for Polyunsaturated fatty acid lipoxygenase ALOX12 (Homo sapiens, UniProt P18054).
pIC50: −log10 of the molar value.

Illustrative cases are given below, each with its answer.
O=S(=O)(Nc1nccs1)c1ccc(NCc2ccccc2O)cc1 < 4.40
O=S(=O)(Nc1nccs1)c1ccc(NCc2cccc(O)c2)cc1 < 4.40
O=S(=O)(Nc1nccs1)c1ccc(NCc2ccccc2)cc1 < 4.40

Here's the next entry for you.
# returns recorded pIC50 (system: Polyunsaturated fatty acid lipoxygenase ALOX12 (Homo sapiens, UniProt P18054)) for Nc1ccccc1CNc1ccc(S(=O)(=O)Nc2nccs2)cc1
# Sequence (P18054 whole entry): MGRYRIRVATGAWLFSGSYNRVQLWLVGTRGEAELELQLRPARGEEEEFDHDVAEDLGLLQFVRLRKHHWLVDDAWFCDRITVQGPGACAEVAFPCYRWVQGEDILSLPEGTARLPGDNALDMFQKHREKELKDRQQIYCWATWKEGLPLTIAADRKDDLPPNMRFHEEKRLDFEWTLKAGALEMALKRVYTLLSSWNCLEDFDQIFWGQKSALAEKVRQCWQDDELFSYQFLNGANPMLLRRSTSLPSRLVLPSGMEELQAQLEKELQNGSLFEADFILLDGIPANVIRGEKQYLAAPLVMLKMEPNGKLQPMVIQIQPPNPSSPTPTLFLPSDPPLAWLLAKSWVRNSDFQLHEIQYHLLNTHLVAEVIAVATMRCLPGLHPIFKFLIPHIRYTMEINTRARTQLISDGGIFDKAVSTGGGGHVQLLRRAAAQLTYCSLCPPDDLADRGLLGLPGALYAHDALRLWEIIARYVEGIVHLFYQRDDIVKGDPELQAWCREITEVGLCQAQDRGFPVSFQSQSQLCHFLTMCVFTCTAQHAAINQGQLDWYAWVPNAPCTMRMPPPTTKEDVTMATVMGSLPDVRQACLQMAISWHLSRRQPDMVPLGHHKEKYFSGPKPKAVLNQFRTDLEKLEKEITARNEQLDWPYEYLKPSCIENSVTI
< 4.40

----------
- assayed.target: Polyunsaturated fatty acid lipoxygenase ALOX15 (Homo sapiens, UniProt P16050)
- Sequence (P16050 whole entry): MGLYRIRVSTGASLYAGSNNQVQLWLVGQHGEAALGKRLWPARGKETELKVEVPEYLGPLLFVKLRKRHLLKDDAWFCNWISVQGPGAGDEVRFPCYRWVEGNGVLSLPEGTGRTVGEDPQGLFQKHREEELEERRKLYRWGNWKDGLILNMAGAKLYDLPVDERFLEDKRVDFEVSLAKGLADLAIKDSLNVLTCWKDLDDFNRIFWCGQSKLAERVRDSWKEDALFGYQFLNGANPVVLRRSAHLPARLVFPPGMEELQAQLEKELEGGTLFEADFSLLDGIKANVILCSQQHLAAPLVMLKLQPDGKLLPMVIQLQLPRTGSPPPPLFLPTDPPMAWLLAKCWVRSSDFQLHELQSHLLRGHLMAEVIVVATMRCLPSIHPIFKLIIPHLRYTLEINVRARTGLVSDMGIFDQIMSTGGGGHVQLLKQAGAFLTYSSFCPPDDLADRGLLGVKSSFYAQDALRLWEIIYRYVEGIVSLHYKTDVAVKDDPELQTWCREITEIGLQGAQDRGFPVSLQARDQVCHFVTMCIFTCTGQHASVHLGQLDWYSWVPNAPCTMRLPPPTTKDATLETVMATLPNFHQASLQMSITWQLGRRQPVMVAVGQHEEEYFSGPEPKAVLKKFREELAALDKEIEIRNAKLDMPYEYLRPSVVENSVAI
measured.attribute: pIC50
To interpret pIC50, take it as minus log10 of a concentration measured in moles per litre.

# returns recorded pIC50 (system: Polyunsaturated fatty acid lipoxygenase ALOX15 (Homo sapiens, UniProt P16050)) for O=S(=O)(Nc1nc2ccccc2s1)c1ccc(NCc2cccc(Cl)c2O)cc1
5.89

----------
- method: Stability of the compound in PBS buffer at pH 7.4 measured at 48 hrs
- Type: physicochemical
- condition.summary: read-out: Stability
measured.attribute: remaining at 48 h (%)
The reply should contain only the number, in %.

Request the reported remaining at 48 h associated with COc1cccc(CNc2ccc(S(=O)(=O)Nc3nc4ccccc4o3)cc2)c1O
100

----------
- Test system: Mus musculus
- method: Cmax in CD-1 mouse at 30 mg/kg, po
- Type: ADME, organism-based
- Parameters: dose 30 mg/kg, route oral
- condition.summary: in vivo
measured.attribute: Cmax (µM)
The reply should contain only the number, in µM.

Request the reported Cmax associated with COc1cccc(CNc2ccc(S(=O)(=O)Nc3nc4ccccc4s3)cc2)c1O [VLX-1005]
38

meta.source: ChEMBL document CHEMBL3112506
